# credit: ChEMBL document CHEMBL1649368

Form field: IC50 (one value per entry).
# study_target: Human immunodeficiency virus type 1 reverse transcriptase (Human immunodeficiency virus 1, UniProt Q72547)
readout_type: IC50 (µM)

- smi: "CONC(=S)N/N=C1\\C(=O)N(CN2CCN(c3ccc(Cl)cc3)CC2)c2ccc(F)cc21"
  readout_type: "IC50"
  assay_value: 16.7
- smi: "CONC(=S)N/N=C1\\C(=O)N(CN2CCN(c3ccc(Cl)cc3)CC2)c2ccc(C)cc21"
  readout_type: "IC50"
  assay_value: 11.5
- smi: "CONC(=S)N/N=C1\\C(=O)N(CN2CCN(c3ccc(Cl)cc3)CC2)c2ccc(Cl)cc21"
  readout_type: "IC50"
  assay_value: 0.25
- smi: "Cc1ccc2c(c1)/C(=N/NC(=S)NO)C(=O)N2CN1CCN(c2ccc(Cl)cc2)CC1"
  readout_type: "IC50"
  assay_value: 23.4

----------
# study_target: Isocitrate lyase (Mycobacterium tuberculosis)
# protocol_notes: Inhibition of Mycobacterium tuberculosis isocitrate lyase […]
readout_type: inhibition (%)

- smi: "CONC(=S)N/N=C1\\C(=O)N(CN2CCN(c3ccc(Cl)cc3)CC2)c2ccc(C)cc21"
  assay_value: 9.49
- smi: "Cc1ccc2c(c1)/C(=N/NC(=S)NO)C(=O)N2CN1CCN(c2ccc(Cl)cc2)CC1"
  assay_value: 11
- smi: "CONC(=S)N/N=C1\\C(=O)N(CN2CCN(c3cc4c(cc3F)c(=O)c(C(=O)O)cn4C3CC3)CC2)c2ccc(C)cc21"
  assay_value: 63.4
- smi: "CONC(=S)N/N=C1\\C(=O)N(CN2CCOCC2)c2ccc(F)cc21"
  assay_value: 15.9

----------
# protocol_notes: Cytotoxicity against human MT4 cells after 5 days by spectrophotometry
# Format: cell-based

- molecule: "CCN(CC)CN1C(=O)/C(=N\\NC(=S)NO)c2cc(F)ccc21"
  CC50 at 120 h / µM: 521
- molecule: "O=C1/C(=N\\NC(=S)NO)c2cc(F)ccc2N1CN1CCN(c2ccc(Cl)cc2)CC1"
  CC50 at 120 h / µM: 194
- molecule: "O=C1/C(=N\\NC(=S)NO)c2cc(Cl)ccc2N1CN1CCN(c2ccccc2)CC1"
  CC50 at 120 h / µM: 273
- molecule: "COc1c(N2CCN(CN3C(=O)/C(=N\\NC(=S)NO)c4cc(C)ccc43)C(C)C2)c(F)cc2c(=O)c(C(=O)O)cn(C3CC3)c12 (stereo not given)"
  CC50 at 120 h / µM: 276
- molecule: "O=C1/C(=N\\NC(=S)NO)c2cc(F)ccc2N1CN1CCOCC1"
  CC50 at 120 h / µM: 465
- molecule: "COc1ccc(N2CCN(CN3C(=O)/C(=N\\NC(=S)NO)c4cc(F)ccc43)CC2)cc1"
  CC50 at 120 h / µM: 260
- molecule: "CONC(=S)N/N=C1\\C(=O)N(CN2CCN(c3ccc(Cl)cc3)CC2)c2ccc(F)cc21"
  CC50 at 120 h / µM: 347
- molecule: "Cc1ccc2c(c1)/C(=N/NC(=S)NO)C(=O)N2CN(C)C"
  CC50 at 120 h / µM: 651
- molecule: "CCn1cc(C(=O)O)c(=O)c2cc(F)c(N3CCN(CN4C(=O)/C(=N\\NC(=S)NO)c5cc(F)ccc54)CC3)cc21"
  CC50 at 120 h / µM: 208
- molecule: "CONC(=S)N/N=C1\\C(=O)N(CN2CCN(c3ccc(OC)cc3)CC2)c2ccc(Cl)cc21"
  CC50 at 120 h / µM: 221
